assaySystem: CD80-CD28 interaction (Homo sapiens, UniProt P33681)
Construct: mouse Fab fragment (fusion partner)
Sequence (P33681 35-242 limits assumed): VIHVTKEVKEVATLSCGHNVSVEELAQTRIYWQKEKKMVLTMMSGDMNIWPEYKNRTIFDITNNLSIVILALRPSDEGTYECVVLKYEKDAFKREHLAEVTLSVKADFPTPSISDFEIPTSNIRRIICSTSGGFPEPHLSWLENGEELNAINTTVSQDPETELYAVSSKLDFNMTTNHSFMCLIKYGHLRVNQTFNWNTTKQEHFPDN
protocolText: cell free Homogenous Time Resolved Fluorescence (HTRF) assay, inhibition of the CD80-CD28 interaction
Type: binding
particulars: 4 hours at room temperature, read-out: Activity (EC50 in summary form)
pEC50: −log10 of the molar value.
The reader will find reported pEC50 values listed item by item below.

Here is how some compounds turned out for pEC50.
CN1C(C)(C)CC(NC(=O)c2ccc(-n3nc4c5cccc(F)c5scc-4c3=O)cc2)CC1(C)C [Example 173]: > 6.00
CC(=O)N1CCC(C(=O)Nc2ccc(-n3nc4c5cccc(F)c5[nH]cc-4c3=O)cc2)CC1 [Example 20]: 5.00 to 6.00
O=C(NCCCN1CCCC1)c1ccc(-n2nc3c4cccc(F)c4[nH]c(C4CC4)c-3c2=O)cc1 [Example 141]: > 6.00
CCN(CC)C(=O)c1cccc(-n2nc3c4cccc(F)c4[nH]cc-3c2=O)c1 [Example 60]: < 5.00
CCN(CC)CCCCNC(=O)c1ccc(-n2nc3c4cccc(F)c4[nH]cc-3c2=O)cc1 [Example 124]: > 6.00

Field request: pEC50 | item: CN1C2CCC1CC(NC(=O)c1ccc(-n3nc4c5cccc(F)c5[nH]cc-4c3=O)cc1)C2 (stereo not drawn) [Example 131] > 6.00

Give the measured pEC50 of COC(=O)Nc1ccc(-n2nc3c4ccccc4[nH]c(C4CC4)c-3c2=O)cc1 [Example 153] . 5.00 to 6.00

Which pEC50 is listed for O=C(Nc1ccc(-n2nc3c4cccc(F)c4[nH]cc-3c2=O)cc1)c1ncoc1-c1ccccc1 [Example 15] ? 5.00 to 6.00

Quick one: pEC50 of O=C(NCCCN1CCCC1=O)c1ccc(-n2nc3c4cccc(F)c4[nH]cc-3c2=O)cc1 [Example 121] ? 5.00 to 6.00

Recorded pEC50 of CCNC(=O)c1ccc(-n2nc3c4cccc(F)c4[nH]cc-3c2=O)cc1 [Example 77] , please. > 6.00

# input compound: O=c1c2c[nH]c3c(F)cccc3c-2nn1-c1ccc(NC(=S)NC2CC2)cc1 [Example 148] ; wanted: its pEC50 5.00 to 6.00

Please look up its pEC50: CCN(CC)CCCC(C)NC(=O)c1ccc(-n2nc3c4cccc(F)c4[nH]cc-3c2=O)cc1 (stereo not drawn) [Example 97] > 6.00
